test: AUC (0 to infinity) in rat at 10 mg/kg, po; assay type: ADME, organism-based; parameters: time infinity, dose 10 mg/kg, route oral; conditions: plasma
// reported AUC(0-inf) per item
readout_name: AUC(0-inf) (µM·h)

[[record]]
cpd_smiles = "CC(C)S(=O)(=O)n1c(N)nc2ccc(-c3[nH]c(-c4c(F)cccc4F)nc3-c3ccccc3)cc21"
readout_name = "AUC(0-inf)"
observed_value = 5.5

[[record]]
cpd_smiles = "CC(C)Cn1cnc2ccc(-c3[nH]c(-c4c(Cl)cccc4Cl)nc3-c3ccccc3)nc21.CS(=O)(=O)O"
readout_name = "AUC(0-inf)"
observed_value = 29.9

[[record]]
cpd_smiles = "CC(C)S(=O)(=O)n1c(N)nc2ccc(-c3[nH]c(C(C)(C)C)nc3-c3ccc(F)cc3F)cc21"
readout_name = "AUC(0-inf)"
observed_value = 14.6

